Target: Human Thrombin (Homo sapiens)
Construct: 0.1 ml US Standard Human Thrombin 5 NIH Unit/ml
Assay protocol: Fibrinogen-thrombin reaction: amount required to double the thrombin time of fibrinogen
Format: biochemical
Condition details: bovine fibrinogen, human thrombin 5 NIH Unit/ml, pH 7.4; thrombin time without derivative 15 seconds
Where a SMILES comes first, the peptide text is derived from it. [ ]: non-standard residue; d: D form. The star is where a group is joined. dPhg = N[C@@H](C(=O)O)c1ccccc1; Agmatine = N=C(N)NCCCCN*; Bn = c1ccc(C*)cc1
Listed here are molecules together with their documented Amount of agmatine derivative required to double the thrombin-time of fibrinogen.
Value type: Amount of agmatine derivative required to double the thrombin-time of fibrinogen (μ/reaction mixture)

[
  {
    "Molecule": "ClOCl.N=C(N)NCCCCNC(=O)[C@@H]1CCCN1C(=O)[C@H](N)Cc1ccccc1 [H--D--Phe--Pro--Agm] (H-[dF]-Pro-Agmatine)",
    "Target": "Human Thrombin (Homo sapiens)",
    "Unit abbreviation": "μ/reaction mixture",
    "Recorded result": 0.12
  },
  {
    "Molecule": "ClOCl.N=C(N)NCCCCNC(=O)[C@@H]1CCCN1C(=O)[C@H](N)c1ccccc1 [H--D--Phg--Pro--Agm] (H-[dPhg]-Pro-Agmatine)",
    "Target": "Human Thrombin (Homo sapiens)",
    "Unit abbreviation": "μ/reaction mixture",
    "Recorded result": 1.4
  },
  {
    "Molecule": "ClOCl.N=C(N)NCCCCNC(=O)[C@@H]1CCCN1C(=O)[C@H](N)COCc1ccccc1 [H--D--Ser(Bzl)--Pro--Agm] (H-[dS](Bn)-Pro-Agmatine)",
    "Target": "Human Thrombin (Homo sapiens)",
    "Unit abbreviation": "μ/reaction mixture",
    "Recorded result": 0.7
  },
  {
    "Molecule": "Cc1ccc(S(=O)(=O)NCCCCNC(=N)N)cc1 [Tosyl--agmatine, reference compound]",
    "Target": "Human Thrombin (Homo sapiens)",
    "Unit abbreviation": "μ/reaction mixture",
    "Recorded result": 280
  }
]

* * *

Listed here are compounds together with their documented relative activity.
Target: Human Thrombin (Homo sapiens, UniProt P00734)
Construct: 0.1 ml US Standard Human Thrombin 5 NIH Unit/ml
Assay protocol: Fibrinogen-thrombin reaction: amount required to double the thrombin time of fibrinogen
Assay type: biochemical
Condition details: related to tosyl-agmatine, taken as unity
Where a SMILES comes first, the peptide text is derived from it. [ ]: non-standard residue; d: D form. The star is where a group is joined. dPhg = N[C@@H](C(=O)O)c1ccccc1; Agmatine = N=C(N)NCCCCN*; Bn = c1ccc(C*)cc1
Value type: relative activity

[
  {
    "Compound": "Cc1ccc(S(=O)(=O)NCCCCNC(=N)N)cc1 [Tosyl--agmatine, reference compound]",
    "Value type": "relative activity",
    "Recorded result": 1
  },
  {
    "Compound": "ClOCl.N=C(N)NCCCCNC(=O)[C@@H]1CCCN1C(=O)[C@H](N)c1ccccc1 [H--D--Phg--Pro--Agm] (H-[dPhg]-Pro-Agmatine)",
    "Value type": "relative activity",
    "Recorded result": 200
  },
  {
    "Compound": "ClOCl.N=C(N)NCCCCNC(=O)[C@@H]1CCCN1C(=O)[C@H](N)Cc1ccccc1 [H--D--Phe--Pro--Agm] (H-[dF]-Pro-Agmatine)",
    "Value type": "relative activity",
    "Recorded result": 2333
  },
  {
    "Compound": "ClOCl.N=C(N)NCCCCNC(=O)[C@@H]1CCCN1C(=O)[C@H](N)COCc1ccccc1 [H--D--Ser(Bzl)--Pro--Agm] (H-[dS](Bn)-Pro-Agmatine)",
    "Value type": "relative activity",
    "Recorded result": 400
  }
]
